Biological target: T1, human CD70 expressed on the cell surface of tumor cell lines (human, UniProt P32970 1-193)
T1 construct: whole, on cells
T1 sequence (looked up): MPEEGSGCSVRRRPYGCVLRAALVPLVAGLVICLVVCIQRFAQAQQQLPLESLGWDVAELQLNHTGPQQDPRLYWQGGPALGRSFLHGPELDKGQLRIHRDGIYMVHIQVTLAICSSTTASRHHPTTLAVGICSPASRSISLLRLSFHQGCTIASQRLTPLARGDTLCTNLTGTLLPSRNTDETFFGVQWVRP
Experiment: flow cytometry on 786-O cells, PE anti-human Fc, MFI; same fit as Table 6, which prints it in nM
The following binders are shown together with reported EC50 values.
# number only, unit µg/mL dropped from output

2E7, full IgG (antibody, V domains shown) VH: QVQLQESGPGLVKPSETLSLTCTVSGGSVSSDYYYWSWIRQPPGKGLEWLGYIYYSGSTNYNPSLKSRVTISVDTSKNQFSLKLRSVTTADTAVYYCARGDGDFLGVCFDYWGQGTLVTVSS VL: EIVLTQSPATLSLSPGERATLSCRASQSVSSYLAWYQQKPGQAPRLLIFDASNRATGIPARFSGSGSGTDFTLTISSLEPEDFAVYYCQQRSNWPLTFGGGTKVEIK | 0.403
69A7 (parent antibody), full IgG (antibody, V domains shown, also called parent antibody 69A7) VH: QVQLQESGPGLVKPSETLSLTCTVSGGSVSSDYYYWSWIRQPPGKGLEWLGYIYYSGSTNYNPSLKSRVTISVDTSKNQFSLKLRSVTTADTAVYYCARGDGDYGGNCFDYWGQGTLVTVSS VL: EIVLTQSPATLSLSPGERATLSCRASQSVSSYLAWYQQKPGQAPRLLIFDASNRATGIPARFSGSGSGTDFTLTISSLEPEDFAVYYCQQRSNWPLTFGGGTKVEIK | 0.973

In plain terms, 2D2, full IgG (antibody, V domains shown) VH: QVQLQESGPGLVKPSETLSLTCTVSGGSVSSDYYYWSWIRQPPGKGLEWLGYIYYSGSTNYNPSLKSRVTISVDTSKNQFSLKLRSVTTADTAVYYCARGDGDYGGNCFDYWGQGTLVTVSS VL: EIVLTQSPATLSLSPGERATLSCRASQSVSSYLAWYQQKPGQAPRLLIFDASNRATGIPARFSGSGSGTDFTLTISSLEPEDFAVYYCQQRLKFPLTFGGGTKVEIK has a documented EC50 of 0.842

// recorded EC50 for 1H8, full IgG (antibody, V domains shown) VH: QVQLQESGPGLVKPSETLSLTCTVSGGSVSSDYYYWSWIRQPPGKGLEWLGYIYYSGSTNYNPSLKSRVTISVDTSKNQFSLKLRSVTTADTAVYYCARGDGDFMGVCFDYWGQGTLVTVSS VL: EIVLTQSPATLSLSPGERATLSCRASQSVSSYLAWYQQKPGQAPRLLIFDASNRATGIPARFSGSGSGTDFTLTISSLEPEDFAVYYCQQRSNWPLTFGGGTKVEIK : 0.767

Lab note: 2A4, full IgG (antibody, V domains shown) VH: QVQLQESGPGLVKPSETLSLTCTVSGGSVSSDYYYWSWIRQPPGKGLEWLGYIYYSGSTNYNPSLKSRVTISVDTSKNQFSLKLRSVTTADTAVYYCARGDGDYGGNVFPYWGQGTLVTVSS VL: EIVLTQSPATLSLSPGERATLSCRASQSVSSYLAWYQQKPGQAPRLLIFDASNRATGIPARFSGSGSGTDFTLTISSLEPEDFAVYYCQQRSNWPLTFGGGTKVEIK gave EC50 of 21.3

Summary for this binder, 2A4P0L1, full IgG (antibody, V domains shown) VH: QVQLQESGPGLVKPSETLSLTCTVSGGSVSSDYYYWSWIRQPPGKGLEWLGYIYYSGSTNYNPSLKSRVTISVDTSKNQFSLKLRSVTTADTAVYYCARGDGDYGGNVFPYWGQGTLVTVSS VL: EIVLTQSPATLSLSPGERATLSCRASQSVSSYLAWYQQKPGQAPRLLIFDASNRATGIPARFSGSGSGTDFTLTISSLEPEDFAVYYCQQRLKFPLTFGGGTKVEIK : EC50 is 0.447
